The measured values listed here are drawn from patent US9796674B2.

Experiment: Single-dose pharmacokinetics in female FVB mice
Assay type: in vivo, mouse
Conditions: female, FVB/NJ, mouse, brain, iv, 10 mg/kg
assay readout: Tmax (min)
Reply numerically in min, unit not repeated.

Exercise: Reported Tmax for O=C(NC1CCCCC1)N(Cc1ccccc1)CC1CCNCC1 [SRI-011381] : what is it?
Key: 15

* * *

Experiment: Single-dose pharmacokinetics in female FVB mice
Assay type: in vivo, mouse
Details: female, FVB/NJ, mouse, brain/plasma; po, 50 mg/kg; values at the brain T; read-out: Brain-to-plasma ratio
assay readout: Kp

Exercise: May I ask what Kp has been recorded for O=C(NC1CCCCC1)N(Cc1ccccc1)CC1CCNCC1 [SRI-011381] ?
Key: 0.19

* * *

Experiment: Single-dose pharmacokinetics in female FVB mice
Type: in vivo, mouse
Conditions: female, FVB/NJ, mouse, plasma, ip, 30 mg/kg
assay readout: AUC(0-inf) (ng·h/mL)
The figure you give is taken to be in ng·h/mL; do not add the unit.

Exercise: Entry under review: `O=C(NC1CCCCC1)N(Cc1ccccc1)CC1CCNCC1` . Reported AUC(0-inf)?
Key: 4160

* * *

Test: PAMPA-BBB permeability assay
Type: in vitro ADME
Details: PAMPA; read-out: PAMPA-BBB Pe
assay readout: Papp (×10⁻⁶ cm/s)
Give a bare numeral; the unit ×10⁻⁶ cm/s is implied.

Exercise: Which value of Papp has been reported for `O=C(NC1CCCCC1)N(Cc1ccccc1)CC1CCNCC1` in the records?
Key: 4.2

* * *

Experiment: Single-dose pharmacokinetics in female FVB mice
Assay type: in vivo, mouse
Conditions: female, FVB/NJ, mouse, brain, po, 50 mg/kg; p.o.; read-out: Brain to Plasma concentration ratio at 4 h
assay readout: Kp at 4 h
Returns: the value as a bare number; no unit string appended.

Exercise: Value lookup for Kp at 4 h; key = `O=C(NC1CCCCC1)N(Cc1ccccc1)CC1CCNCC1`
Key: 0.89

* * *

Assay: Single-dose pharmacokinetics in female FVB mice
Assay type: in vivo, mouse
Settings: female, FVB/NJ, mouse, plasma, po, 50 mg/kg
assay readout: Cmax
Your answer should be a number followed by the unit of measure.

Exercise: For `O=C(NC1CCCCC1)N(Cc1ccccc1)CC1CCNCC1` , what is its reported Cmax?
Key: 2950 ng/mL

* * *

Assay: Single-dose pharmacokinetics in female FVB mice
Type: in vivo, mouse
Conditions: female, FVB/NJ, mouse, plasma, ip, 30 mg/kg; read-out: t1/2 (converted)
assay readout: half-life

Exercise: # get_value(readout='half-life', item= `O=C(NC1CCCCC1)N(Cc1ccccc1)CC1CCNCC1` )
Key: 35.4 min

* * *

Test: Single-dose pharmacokinetics in female FVB mice
Assay type: in vivo, mouse
Settings: female, FVB/NJ, mouse, plasma, po, 50 mg/kg
assay readout: AUC(0-t) (ng·h/mL)
Please state the figure in ng·h/mL; there is no need to write the unit.

Exercise: Which AUC(0-t) reading was recorded for the molecule O=C(NC1CCCCC1)N(Cc1ccccc1)CC1CCNCC1 [SRI-011381] ?
Key: 2600

* * *

Assay: Single-dose pharmacokinetics in female FVB mice
Assay type: in vivo, mouse
Details: female, FVB/NJ, mouse, plasma, intravenous, intraperitoneal, oral; read-out: elimination half-life
assay readout: half-life

Exercise: Fill blank: measured half-life of the molecule `O=C(NC1CCCCC1)N(Cc1ccccc1)CC1CCNCC1` is ____.
Key: < 1 h

* * *

Test: Single-dose pharmacokinetics in female FVB mice
Format: in vivo, mouse
Details: female, FVB/NJ, mouse, brain, po, 50 mg/kg
assay readout: Cmax (ng/mL)
Please respond with the number in ng/mL and leave the unit unwritten.

Exercise: What value of Cmax has been recorded for this entry: `O=C(NC1CCCCC1)N(Cc1ccccc1)CC1CCNCC1`
Key: 157

* * *

Assay: Single-dose pharmacokinetics in female FVB mice
Type: in vivo, mouse
Settings: female, FVB/NJ, mouse, plasma, iv, 10 mg/kg
assay readout: Tmax
Give the number first and the unit second.

Exercise: May I ask what Tmax has been recorded for `O=C(NC1CCCCC1)N(Cc1ccccc1)CC1CCNCC1` ?
Key: 4.98 min

* * *

Assay: Dose escalation and 14-day MTD study in female FVB mice
Type: in vivo
Details: female, FVB, mouse, in vivo; daily oral dose for 14 days
assay readout: NOAEL at 14 days

Exercise: Look up NOAEL at 14 days for this compound: `O=C(NC1CCCCC1)N(Cc1ccccc1)CC1CCNCC1`
Key: < 30 mg/kg

* * *

Experiment: Single-dose pharmacokinetics in female FVB mice
Assay type: in vivo, mouse
Conditions: female, FVB/NJ, mouse, brain, intraperitoneal; time points after about 0.5 h (iv) and about 1.5 h (po and ip); read-out: brain-to-plasma concentration ratio
assay readout: Kp

Exercise: Tell me the measured Kp of O=C(NC1CCCCC1)N(Cc1ccccc1)CC1CCNCC1 [SRI-011381] , please.
Key: > 0.5

* * *

Assay: Single-dose pharmacokinetics in female FVB mice
Assay type: in vivo, mouse
Details: female, FVB/NJ, mouse; brain, po, 50 mg/kg; AUC from 0.5 to 4 h
assay readout: AUC(0-t)

Exercise: I would be grateful if you could share the reported AUC(0-t) for O=C(NC1CCCCC1)N(Cc1ccccc1)CC1CCNCC1 [SRI-011381] .
Key: 416 ng·h/mL

* * *

Test: Single-dose pharmacokinetics in female FVB mice
Format: in vivo, mouse
Conditions: female, FVB/NJ, mouse, plasma, intraperitoneal; extravascular estimates (ip and po) based on F; read-out: apparent volume of distribution V
assay readout: Vd

Exercise: Give the measured Vd of O=C(NC1CCCCC1)N(Cc1ccccc1)CC1CCNCC1 [SRI-011381] .
Key: 8 to 13 L/kg

* * *

Assay: Cytotoxicity in VERO cells
Type: cell-based
Settings: African green monkey, read-out: LC50 (the source's name)
Method: In Vitro Cytotoxicity: The cytotoxicity of SRI-011381 was determined in primary rat hepatocytes and in VERO cells. Cytotoxicity: In vitro cytotoxicity assays are used to estimate the relative toxicity of test compounds, e.g. a set of chemical analogs prior to efficacy screening. To estimate “basal” toxicity, a cell line such as VERO cells are typically used. Additional factors including drug metabolism can alter the relative toxicity of a compound in vivo. […]
assay readout: CC50 (µM)
# output: bare number, implied unit µM

Exercise: Entry `O=C(NC1CCCCC1)N(Cc1ccccc1)CC1CCNCC1` : reported CC50 = ?
Key: 167

* * *

Assay: Single-dose pharmacokinetics in female FVB mice
Format: in vivo, mouse
Conditions: female, FVB/NJ, mouse, plasma, iv, 10 mg/kg
assay readout: Cmax
Answer format: value, then unit.

Exercise: Data request, read-out Cmax, for `O=C(NC1CCCCC1)N(Cc1ccccc1)CC1CCNCC1`
Key: 1170 ng/mL

* * *

Assay: Single-dose pharmacokinetics in female FVB mice
Assay type: in vivo, mouse
Details: female, FVB/NJ, mouse, brain/plasma; iv, 10 mg/kg; values at the brain T; read-out: Brain-to-plasma ratio
assay readout: Kp

Exercise: Endpoint output: Kp of O=C(NC1CCCCC1)N(Cc1ccccc1)CC1CCNCC1 [SRI-011381] . Value?
Key: 0.28

* * *

Test: Single-dose pharmacokinetics in female FVB mice
Format: in vivo, mouse
Details: female, FVB/NJ, mouse, plasma, po, 50 mg/kg, plasma, po, 50 mg/kg; read-out: F (oral bioavailability)
assay readout: bioavailability

Exercise: Which bioavailability is listed for `O=C(NC1CCCCC1)N(Cc1ccccc1)CC1CCNCC1` ?
Key: ~50%

* * *

Experiment: Single-dose pharmacokinetics in female FVB mice
Type: in vivo, mouse
Conditions: female, FVB/NJ, mouse; brain, ip, 30 mg/kg; AUC from 0.25 to 4 h
assay readout: AUC(0-t) (ng·h/mL)
Expressed in ng·h/mL, but write only the number.

Exercise: Give its AUC(0-t) value. Item: `O=C(NC1CCCCC1)N(Cc1ccccc1)CC1CCNCC1`
Key: 740

* * *

Assay: PAMPA double sink permeability assay
Type: in vitro ADME
Conditions: pH 7.4, 6.2, 5.0, read-out: sum of the permeability coefficients (Pe)
assay readout: Papp (×10⁻⁶ cm/s)
Response body: numeric value in ×10⁻⁶ cm/s, unit text excluded.

Exercise: Which value of Papp has been reported for `O=C(NC1CCCCC1)N(Cc1ccccc1)CC1CCNCC1` in the records?
Key: 781
